- EXPERIMENT SUMMARY: Antiproliferative activity against human MKN45 cells after 72 hrs by MTT assay
- Type: functional, cell-based
- CONDITION LABEL: MKN-45, 72 h
pIC50: −log10 of the molar value.
EXPERIMENTAL READOUT: pIC50

>>> reported_result("CN(C)Cc1ccc2nc(NC(=O)N/N=C/c3ccc(O)cc3O)sc2c1")
5.55
>>> reported_result("O=C(N/N=C/c1ccc(OCc2ccc(Cl)cc2)cc1O)Nc1nc2ccc(N3CCOCC3)cc2s1")
6.54
>>> reported_result("CC(C)(C)c1ccc(COc2ccc(/C=N/NC(=O)Nc3nc4ccc(N5CCOCC5)cc4s3)c(O)c2)cc1")
6.34
>>> reported_result("CC1CCN(Cc2ccc3nc(NC(=O)N/N=C/c4ccc(O)cc4O)sc3c2)CC1")
5.39
>>> reported_result("CN(C)Cc1ccc2nc(NC(=O)N/N=C/c3ccc(OCc4ccc(Cl)cc4)cc3O)sc2c1")
6.15
>>> reported_result("O=C(N/N=C/c1ccc(OCc2ccc(Cl)cc2Cl)cc1O)Nc1nc2ccc(N3CCOCC3)cc2s1")
5.76
>>> reported_result("C=CCc1cccc(/C=N/NC(=O)CN2CCN(Cc3ccccc3)CC2)c1O")
5.58
>>> reported_result("CCN(CC)Cc1ccc2nc(NC(=O)N/N=C/c3ccc(OCc4ccc(C(C)(C)C)cc4)cc3O)sc2c1")
6.30
>>> reported_result("CCN(CC)Cc1ccc2nc(NC(=O)N/N=C/c3ccc(OCc4ccccc4Cl)cc3O)sc2c1")
6.38
>>> reported_result("O=C(N/N=C/c1ccc(OCc2cccc(Cl)c2)cc1O)Nc1nc2ccc(N3CCOCC3)cc2s1")
6.55
>>> reported_result("CN(C)Cc1ccc2nc(NC(=O)N/N=C/c3ccc(OCc4cccc(Cl)c4)cc3O)sc2c1")
6.72
>>> reported_result("Cc1ccc(COc2ccc(/C=N/NC(=O)Nc3nc4ccc(N5CCOCC5)cc4s3)c(O)c2)cc1")
6.12
>>> reported_result("O=C(N/N=C/c1ccccc1O)Nc1nc2ccc(CN3CCOCC3)cc2s1")
5.63
>>> reported_result("CCN(CC)Cc1ccc2nc(NC(=O)N/N=C/c3ccc(OCc4ccc(C)cc4)cc3O)sc2c1")
6.24
>>> reported_result("CCN(CC)Cc1ccc2nc(NC(=O)N/N=C/c3ccc(OCc4csc(Cc5ccc6c(c5)OCO6)n4)cc3O)sc2c1")
6.29
>>> reported_result("Cc1ccc(COc2ccc(/C=N/NC(=O)Nc3nc4ccc(CN5CCC(C)CC5)cc4s3)c(O)c2)cc1")
6.51
>>> reported_result("CC1CCN(Cc2ccc3nc(NC(=O)N/N=C/c4ccc(OCc5csc(Cc6ccc7c(c6)OCO7)n5)cc4O)sc3c2)CC1")
6.26
